Molecular target: T1, cynomolgus TROP2-his protein (cynomolgus monkey, UniProt P09758 27-272 (human entry), limits assumed)
T1 construct: no cleavage site is stated; also called Cynomolgus monkey TROP2-his protein; monkey TROP2
T1 chain: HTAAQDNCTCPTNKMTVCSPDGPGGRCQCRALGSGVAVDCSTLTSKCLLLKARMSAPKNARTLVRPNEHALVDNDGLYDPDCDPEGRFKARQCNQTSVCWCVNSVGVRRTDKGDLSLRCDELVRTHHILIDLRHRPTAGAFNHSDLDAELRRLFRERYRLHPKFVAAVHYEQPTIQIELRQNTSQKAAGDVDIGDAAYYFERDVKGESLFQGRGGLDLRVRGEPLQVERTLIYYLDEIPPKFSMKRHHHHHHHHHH
Assay: indirect ELISA, cynomolgus TROP2-his coated, OD(450-630)
property_measured: pEC50
In simple prose, pEC50 is minus the logarithm base ten of a concentration in moles per litre.

Inquiry: Param item = chimeric A1E4F7D4 (antibody, human IgG1, kappa, V domains shown, also called chimeric antibody A1E4F7D4) VH: QVQLQQSGAELAKPGTSVKMSCEASGYSFTTHWIHWMKQRPGQGLEWIGTIFPSNAYAVYNQKFRDRAIMTADRSSTTAYIQLTGLTSEDSAVYYCARASYFDYWGQGTTLTVSS VL: DILLTQSPATLSVSPGERVTFSCRASQNIGTSIHWFQQRTTGSPRLLIKYASESISGIPSRFSGSGSGTDFTLHINSVESEDIAHYYCQHSHSWPFTFGSGTKLEIQR ; retrieve measured pEC50.
Reply text: 9.63

Sourced from patent US20240207432A1
